Target system: Solute carrier organic anion transporter family member 1B3 (Homo sapiens, UniProt Q9NPD5)
Sequence (Q9NPD5 whole entry): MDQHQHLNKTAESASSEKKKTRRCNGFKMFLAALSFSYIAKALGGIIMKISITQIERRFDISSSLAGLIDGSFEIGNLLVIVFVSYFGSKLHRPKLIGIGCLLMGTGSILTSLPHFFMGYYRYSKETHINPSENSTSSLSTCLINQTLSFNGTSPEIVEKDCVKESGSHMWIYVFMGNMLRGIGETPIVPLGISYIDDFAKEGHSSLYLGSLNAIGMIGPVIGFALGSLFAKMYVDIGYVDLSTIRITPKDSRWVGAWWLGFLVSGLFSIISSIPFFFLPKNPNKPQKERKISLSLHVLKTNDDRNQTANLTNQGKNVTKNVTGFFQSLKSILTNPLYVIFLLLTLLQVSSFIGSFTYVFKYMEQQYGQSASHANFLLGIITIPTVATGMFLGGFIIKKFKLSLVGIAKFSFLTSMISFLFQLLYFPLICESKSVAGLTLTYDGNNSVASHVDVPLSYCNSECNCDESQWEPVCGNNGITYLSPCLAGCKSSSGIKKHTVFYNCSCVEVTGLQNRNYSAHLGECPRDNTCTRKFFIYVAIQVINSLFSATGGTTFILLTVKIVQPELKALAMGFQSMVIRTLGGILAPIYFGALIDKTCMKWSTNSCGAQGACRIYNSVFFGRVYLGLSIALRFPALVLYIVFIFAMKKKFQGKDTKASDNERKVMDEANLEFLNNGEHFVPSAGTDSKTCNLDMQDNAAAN
Reported conditions: chinese hamster, cho, 10 µM
Reported endpoint: residual activity (%)

{"Compound": "CC(=O)O[C@H]1CC[C@]2(C)[C@H]3CC=C4[C@@H]5CC(C)(C)CC[C@]5(C)CC[C@@]4(C)[C@]3(C)CC[C@H]2C1(C)C [beta-AMYRIN ACETATE]", "Target system": "Solute carrier organic anion transporter family member 1B3 (Homo sapiens, UniProt Q9NPD5)", "Endpoint result": 110}
{"Compound": "COc1c(O)cc2c(-c3ccccc3)cc(=O)oc2c1OC [KUHLMANNIN]", "Target system": "Solute carrier organic anion transporter family member 1B3 (Homo sapiens, UniProt Q9NPD5)", "Endpoint result": 118.4}
{"Compound": "OCc1ccccc1O[C@@H]1O[C@H](CO)[C@@H](O)[C@H](O)[C@H]1O [SALICIN]", "Target system": "Solute carrier organic anion transporter family member 1B3 (Homo sapiens, UniProt Q9NPD5)", "Endpoint result": 97.32}
{"Compound": "COC(=O)[C@@H]1OC(=O)[C@H]2O[C@]23[C@@]2(C)[C@H](CC[C@@]13C)[C@@]1(C)CCC(=O)C(C)(C)[C@@H]1C[C@H]2OC(C)=O", "Target system": "Solute carrier organic anion transporter family member 1B3 (Homo sapiens, UniProt Q9NPD5)", "Endpoint result": 99.12}
{"Compound": "OC[C@H]1O[C@@H](n2cnc3c(O)ncnc32)[C@H](O)[C@@H]1O [INOSINE]", "Target system": "Solute carrier organic anion transporter family member 1B3 (Homo sapiens, UniProt Q9NPD5)", "Endpoint result": 107.3}
{"Compound": "CC(C)[C@H](N)C(=O)OCCOCn1cnc2c(=O)[nH]c(N)nc21.Cl [VALACYCLOVIR HYDROCHLORIDE]", "Target system": "Solute carrier organic anion transporter family member 1B3 (Homo sapiens, UniProt Q9NPD5)", "Endpoint result": 80.91}
{"Compound": "CC1(C)O[C@H]2CC(=O)OC[C@]23[C@H]2CC[C@@]4(C)[C@H](c5ccoc5)OC(=O)[C@H]5O[C@]54[C@]2(C)C(=O)C[C@@H]13 [LIMONIN]", "Target system": "Solute carrier organic anion transporter family member 1B3 (Homo sapiens, UniProt Q9NPD5)", "Endpoint result": 92.09}
{"Compound": "COc1cc(O)ccc1C(C)=O [ISOPEONOL]", "Target system": "Solute carrier organic anion transporter family member 1B3 (Homo sapiens, UniProt Q9NPD5)", "Endpoint result": 84.87}
{"Compound": "Oc1c(Cl)c(Cl)c(Cl)c(Cl)c1Cl [PENTACHLOROPHENOL]", "Target system": "Solute carrier organic anion transporter family member 1B3 (Homo sapiens, UniProt Q9NPD5)", "Endpoint result": 40.68}
{"Compound": "CCOC(=O)c1c(C)cc(O)cc1O [ORSELLINIC ACID, ETHYL ESTER]", "Target system": "Solute carrier organic anion transporter family member 1B3 (Homo sapiens, UniProt Q9NPD5)", "Endpoint result": 105.8}
{"Compound": "C=C1[C@@H]2CC[C@@]3(C)[C@H](c4ccoc4)OC(=O)C[C@]13O[C@H]1CC(=O)C(C)(C)[C@H](C(OC(C)=O)C(=O)OC)[C@]12C (stereo partly drawn) [METHYL 6-ACETOXYANGOLENSATE]", "Target system": "Solute carrier organic anion transporter family member 1B3 (Homo sapiens, UniProt Q9NPD5)", "Endpoint result": 34.99}
{"Compound": "CCC(C(N)=O)c1ccccc1 (stereo not drawn) [FENBUTYRAMIDE]", "Target system": "Solute carrier organic anion transporter family member 1B3 (Homo sapiens, UniProt Q9NPD5)", "Endpoint result": 100.4}
{"Compound": "CC1=C(C(=O)O)N2C(=O)[C@@H](NC(=O)[C@H](N)c3ccc(O)cc3)[C@H]2SC1 [CEFADROXIL]", "Target system": "Solute carrier organic anion transporter family member 1B3 (Homo sapiens, UniProt Q9NPD5)", "Endpoint result": 101.2}
{"Compound": "Cc1ccccc1N1C(=O)c2cc(S(N)(=O)=O)c(Cl)cc2NC1C (stereo not drawn) [METOLAZONE]", "Target system": "Solute carrier organic anion transporter family member 1B3 (Homo sapiens, UniProt Q9NPD5)", "Endpoint result": 66.79}
{"Compound": "CC(C)CCC[C@@H](C)[C@H]1CC[C@H]2[C@@H]3CC[C@H]4CCCC[C@]4(C)[C@H]3CC[C@]12C", "Target system": "Solute carrier organic anion transporter family member 1B3 (Homo sapiens, UniProt Q9NPD5)", "Endpoint result": 103.3}
{"Compound": "CCCCCC(C)N.O=S(=O)(O)O (stereo not drawn)", "Target system": "Solute carrier organic anion transporter family member 1B3 (Homo sapiens, UniProt Q9NPD5)", "Endpoint result": 90.66}
{"Compound": "[H]/N=C(/N)NS(=O)(=O)c1ccc(N)cc1 [SULFAGUANIDINE]", "Target system": "Solute carrier organic anion transporter family member 1B3 (Homo sapiens, UniProt Q9NPD5)", "Endpoint result": 108}
{"Compound": "O=c1c(-c2ccc(O)cc2)coc2cc(O)ccc12 [DAIDZEIN]", "Target system": "Solute carrier organic anion transporter family member 1B3 (Homo sapiens, UniProt Q9NPD5)", "Endpoint result": 103.8}
{"Compound": "Cc1c(O)c(O)cc2c1CC=C1[C@@]2(C)CC[C@@]2(C)[C@@H]3C[C@](C)(C(=O)O)CC[C@]3(C)CC[C@]12C [DIHYDROCELASTROL]", "Target system": "Solute carrier organic anion transporter family member 1B3 (Homo sapiens, UniProt Q9NPD5)", "Endpoint result": 40.35}
{"Compound": "CCCn1c(=O)c2[nH]c(C3CCCC3)nc2n(CCC)c1=O", "Target system": "Solute carrier organic anion transporter family member 1B3 (Homo sapiens, UniProt Q9NPD5)", "Endpoint result": 117.3}
{"Compound": "CCn1cc(C(=O)O)c(=O)c2ccc(C)nc21 [NALIDIXIC ACID]", "Target system": "Solute carrier organic anion transporter family member 1B3 (Homo sapiens, UniProt Q9NPD5)", "Endpoint result": 81.71}
{"Compound": "CC(=O)OCC(CCn1cnc2cnc(N)nc21)COC(C)=O [FAMCICLOVIR]", "Target system": "Solute carrier organic anion transporter family member 1B3 (Homo sapiens, UniProt Q9NPD5)", "Endpoint result": 68.05}
{"Compound": "CC(C)[C@@H](C)/C=C/[C@@H](C)[C@H]1CC[C@H]2C3=CCC4CC(=O)CC[C@]4(C)[C@H]3CC[C@]12C (stereo partly drawn) [ERGOSTA-7,22-DIEN-3-ONE]", "Target system": "Solute carrier organic anion transporter family member 1B3 (Homo sapiens, UniProt Q9NPD5)", "Endpoint result": 94.39}
{"Compound": "C=C1[C@@H]2CC[C@@]3(C)[C@H](c4ccoc4)OC(=O)C[C@]13O[C@H]1C[C@H](O)C(C)(C)[C@H](CC(=O)OC)[C@]12C", "Target system": "Solute carrier organic anion transporter family member 1B3 (Homo sapiens, UniProt Q9NPD5)", "Endpoint result": 17.5}
{"Compound": "ClC1=C(Cl)C2(Cl)C3C(Cl)C(Cl)CC3C1(Cl)C2(Cl)Cl (stereo not drawn) [CHLORDANE]", "Target system": "Solute carrier organic anion transporter family member 1B3 (Homo sapiens, UniProt Q9NPD5)", "Endpoint result": 121.6}
{"Compound": "COc1ccc2ccc(=O)oc2c1CC=C(C)C [OSTHOLE]", "Target system": "Solute carrier organic anion transporter family member 1B3 (Homo sapiens, UniProt Q9NPD5)", "Endpoint result": 121.3}
{"Compound": "NC[C@H]1O[C@H](O[C@H]2[C@H](O)[C@@H](O[C@H]3O[C@H](CO)[C@@H](O)[C@H](N)[C@H]3O)[C@H](N)C[C@@H]2N)[C@H](N)[C@@H](O)[C@@H]1O.O=S(=O)(O)O [BEKANAMYCIN SULFATE]", "Target system": "Solute carrier organic anion transporter family member 1B3 (Homo sapiens, UniProt Q9NPD5)", "Endpoint result": 118.1}
{"Compound": "CCCCNC(=O)NS(=O)(=O)c1ccc(C)cc1 [TOLBUTAMIDE]", "Target system": "Solute carrier organic anion transporter family member 1B3 (Homo sapiens, UniProt Q9NPD5)", "Endpoint result": 99.86}
{"Compound": "CN(C)C(=S)SSC(=S)N(C)C [THIRAM]", "Target system": "Solute carrier organic anion transporter family member 1B3 (Homo sapiens, UniProt Q9NPD5)", "Endpoint result": 99.01}
{"Compound": "C#C[C@]1(O)CC[C@H]2[C@@H]3CCC4=C(CCC(=O)C4)[C@H]3CC[C@@]21C [NORETHYNODREL]", "Target system": "Solute carrier organic anion transporter family member 1B3 (Homo sapiens, UniProt Q9NPD5)", "Endpoint result": 124.5}
{"Compound": "COc1c(-c2ccccc2)oc2c(ccc3occc32)c1=O [KARANJIN]", "Target system": "Solute carrier organic anion transporter family member 1B3 (Homo sapiens, UniProt Q9NPD5)", "Endpoint result": 124.7}
{"Compound": "COC(=O)Nc1nc2ccc(C(=O)c3cccs3)cc2[nH]1 [NOCODAZOLE]", "Target system": "Solute carrier organic anion transporter family member 1B3 (Homo sapiens, UniProt Q9NPD5)", "Endpoint result": 95.15}
{"Compound": "C=CCC1(C(C)CCC)C(=O)N=C([S-])NC1=O.[Na+] (stereo not drawn) [THIAMYLAL SODIUM]", "Target system": "Solute carrier organic anion transporter family member 1B3 (Homo sapiens, UniProt Q9NPD5)", "Endpoint result": 103.8}
